These measurements were taken from patent US11685732B2.

# Lookup of reported IC50 keyed by entry
Tested target: KAT-6A (Homo sapiens (Human))
Sequence (Q92794 other isoform, or with tags, fused parts or gaps): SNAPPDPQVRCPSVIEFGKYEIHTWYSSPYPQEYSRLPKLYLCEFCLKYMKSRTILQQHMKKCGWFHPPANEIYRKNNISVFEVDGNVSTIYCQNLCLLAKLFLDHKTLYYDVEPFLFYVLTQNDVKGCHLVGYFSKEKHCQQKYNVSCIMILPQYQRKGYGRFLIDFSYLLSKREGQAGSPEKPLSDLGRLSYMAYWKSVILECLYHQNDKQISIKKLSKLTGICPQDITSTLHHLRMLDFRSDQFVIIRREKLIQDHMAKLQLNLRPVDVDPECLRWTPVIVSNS
Test method notes: KAT-6A biochemical inhibition assay (SAMDI mass spectrometry)

| Compound | Test value |
| --- | --- |
| CCNC(=O)N1C[C@H](CS(=O)(=O)NNC(=O)c2cc(-c3cn(C)cn3)cc(Cl)c2F)[C@@H](C)C1 [Compound I-271] | 10 to 50 µM |
| CCc1cc(O)cc(S(=O)(=O)NNC(=O)c2cc(-c3ccccn3)cc(Cl)c2F)c1 [Compound I-483] | < 10 µM |
| COc1ccc(CN(C)C(=O)NC2CCC(CS(=O)(=O)NNC(=O)c3cc(-c4cn(C)cn4)cc(Cl)c3F)C2)cc1 (stereo not drawn) [Compound I-359] | < 10 µM |
| Cc1cc(-c2cnn(C)c2)cc(C(=O)NNS(=O)(=O)C2CCCCC2)c1F [Compound I-156] | > 100 µM |
| Cn1cnc(-c2cc(Cl)c(F)c(C(=O)NNS(=O)(=O)CC3CCN(C(=O)CCO)C3)c2)c1 (stereo not drawn) [Compound I-83] | 10 to 50 µM |

Please examine the following record next.
Send back KAT-6A (Homo sapiens (Human)) IC50 of Cn1cnc(-c2cc(Cl)c(F)c(C(=O)NNS(=O)(=O)C[C@H]3CC[C@@H](N(C)C(=O)OC(C)(C)C)CC3)c2)c1 [Compound I-331] only.
10 to 50 µM
